- Method Description: binders of probe aFGF10 on microarray, primary screen, stem cell growth factor project, biochemical, small-molecule microarray, fluorescence 635/667 (AID 1071);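 further: score merges 667 nm spot intensity and signal to noise from triplicate slides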
- Condition Context: higher = more signal
Record condition met whenever composite z-score is at 0.5 or higher; record condition not met when lower.

C[C@H]1CC[C@H]2C(=O)O[C@H](COc3ccc(C(C)(C)C)cc3)CN2[C@@H]1c1ccc(Br)cc1 : condition not met

Is composite z-score at least 0.5? Consider `CCOC(=O)C1=NO[C@@]2(C=C(Br)C3(OCCCO3)[C@H]3O[C@H]32)C1`
condition met

Is composite z-score at least 0.5? Consider `COc1ccc(O[C@H]2C=C[C@@H](c3ccccc3)O[C@@H]2CON=C(C)CCC(=O)OC[C@H]2O[C@H](c3ccccc3)C=C[C@@H]2Oc2ccc(OC)cc2)cc1`
condition not met

Is composite z-score at least 0.5? Consider `CC(C)(C)N1C(=O)[C@H]2[C@H]3[C@H](O)[C@H](O)CC(=O)[C@@H]3CC[C@H]2C1=O`
condition met

Is composite z-score at least 0.5? Consider CCOC(=O)[C@H](CC(C)C)NC(=O)CCC1CC(OC(=O)NCc2cccc3ccccc23)CC2(CCCC(COC(=O)NCc3cccc(C(F)(F)F)c3)O2)O1 (stereo partly drawn)
condition not met

Is composite z-score at least 0.5? Consider CCOC(=O)[C@H](CC(C)C)NC(=O)CCC1CC(OC(=O)NCCc2ccc(F)cc2)CC2(CCCC(COC(=O)NCC(c3ccccc3)c3ccccc3)O2)O1 (stereo partly drawn)
condition not met

Is composite z-score at least 0.5? Consider `CC(C)=CCCC(C)=CCON=C1C[C@@H](O)[C@@H](O)[C@@H]2[C@@H]3C(=O)N(C4CCCCC4)C(=O)[C@@H]3CC[C@@H]12`
condition not met

Is composite z-score at least 0.5? Consider `CO[C@H]1COC(=O)[C@H](C)NC(=O)[C@@H](C)COC(=O)[C@H]2CCCN2C(=O)CC=C[C@H]1C`
condition not met

----------
- Method Description: basal S. cerevisiae growth modulation, no modifier, primary screen, OD600, strain BY4716, 24 h, basal condition (AID 1173)
- Condition Context: OD600, 24 h, called active from +8 up or from −8 down
Calls of active or inactive are those of the source.
Write down one outcome, taken from Yes = active, No = inactive

Reference set (5 entries):
COc1cccc([C@@H]2Oc3ccc(OC)cc3C(=O)[C@H]2O)c1 : Yes
COc1ccc(COC(=O)NN=C2C[C@@H](O)[C@@H](O)[C@@H]3[C@@H]4C(=O)N(C5CCCCC5)C(=O)[C@@H]4CC[C@H]23)cc1 : No
CCN1C(=O)[C@H]2[C@H]3[C@H](O)[C@H](O)CC(=NNC(=O)OCc4ccc(OC)cc4)[C@@H]3CC[C@H]2C1=O : No
CCOC(=O)[C@H](Cc1ccccc1)NC(=O)CCC1CC(OC(=O)NCc2cccc3ccccc23)CC2(CCCC(COC(=O)NCC(c3ccccc3)c3ccccc3)O2)O1 (some centres not stated) : No
CC(=O)OC[C@H]1O[C@H](CC=NO[C@H](C)c2cn([C@H](CO)Cc3ccccc3)nn2)C=C[C@@H]1OC(C)=O : No

Record lookup: outcome of this test for `CC(C)=CCCC(C)=CCON=C1C[C@@H](O)[C@@H](O)[C@@H]2[C@@H]3C(=O)N(c4ccc(F)cc4F)C(=O)[C@@H]3CC[C@@H]12` ?
No

Record lookup: outcome of this test for `CO[C@H]1COC(=O)CC=C[C@@H](C)[C@H](OC)COC(=O)[C@@H]2CCCN2C(=O)CC=C[C@@H]1C` ?
No

Record lookup: outcome of this test for `CC(C)CON=C1C[C@@H](O)[C@@H](O)[C@@H]2[C@@H]3C(=O)N(C4CCCCC4)C(=O)[C@@H]3CC[C@@H]12` ?
No

Record lookup: outcome of this test for `O=c1n(Cc2cc3c(cc2Cl)OCO3)c(=O)n2n1CC[C@@H]1C(=NOC[C@@H](O)COCc3ccco3)[C@H]3O[C@H]3[C@@H](O)[C@@H]12` ?
No

Record lookup: outcome of this test for C=C(C)C(=O)OCC1CN2[C@@H](CC[C@@H](C)[C@@H]2c2ccc(Br)cc2)C(=O)O1 (some centres not stated) ?
No

Record lookup: outcome of this test for `Cc1ccc(S(=O)(=O)OC[C@H]2CN3[C@H](c4ccc(Br)cc4)[C@@H](C)CC[C@H]3C(=O)O2)cc1` ?
Yes

Record lookup: outcome of this test for `CC=CC1=C(CO)C(=O)[C@@H]2O[C@@H]2C1=O` ?
No
